- Test system: Hepatitis B virus
- ASSAY_PROTOCOL: Antiviral activity against HBV assessed as inhibition of viral e-antigen production by enzyme immunoassay
- Assay type: functional, organism-based
pIC50: −log10 of the molar value.
READOUT_LABEL: pIC50

- COMPOUND: "CCOC(=O)c1cc2c(Cn3ccnc3)c(O)c(OC)cc2nc1CSc1cccc(OC)c1"
  pIC50: 4.19
- COMPOUND: "CCOC(=O)c1cc2c(Cn3ccnc3C)c(O)c(OC)cc2nc1CSc1ccc(F)cc1"
  pIC50: 4.79

1: CCOC(=O)c1cc2c(CN3CCCC3)c(O)c(OC)cc2nc1CSc1ccc(F)cc1
2: CCOC(=O)c1cc2c(Cn3ccnc3)c(O)c(OC)cc2nc1C[S+]([O-])c1ccc(F)cc1 (stereo not given)
3: CCOC(=O)c1cc2c(CN(C)C)c(O)c(OC)cc2nc1CSc1ccccc1OC
Given 3 compounds, produce a descending ranking by pIC50. # answer = labels listed in requested order
1, 3, 2
(1: 5.03, 3: 4.69, 2: 4.01)

###

- ASSAY_PROTOCOL: Selectivity index, ratio of TC50 for human HepG2.2.15 cells to IC50 for HBV surface antigen production
READOUT_LABEL: Ratio
The answer should be written as a number, with no unit following it.

Supply recorded Ratio for CCOC(=O)c1cc2c(Cn3ccnc3)c(O)c(OC)cc2nc1C[S+]([O-])c1cccc(OC)c1 (centres undefined) here.
5.9

Supply recorded Ratio for CCOC(=O)c1cc2c(Cn3ccnc3)c(O)c(OC)cc2nc1C[S+]([O-])c1ccc(F)cc1 (centres undefined) here.
6.1

Supply recorded Ratio for CCOC(=O)c1cc2c(CN3CCOCC3)c(O)c(OC)cc2nc1CSc1ccc(F)c(F)c1 here.
13.7

Supply recorded Ratio for CCOC(=O)c1cc2c(CN3CCCC3)c(O)c(OC)cc2nc1C[S+]([O-])c1ccc(F)cc1 (centres undefined) here.
6.6

###

# Ratio annotations
- ASSAY_PROTOCOL: Selectivity index, ratio of TC50 for human HepG2.2.15 cells to IC50 for HBV surface antigen production
The answer should be written as a number, with no unit following it.

The examples below pair each entry with its known result.
- COMPOUND: "CCOC(=O)c1cc2c(CN3CCN(C)CC3)c(O)c(OC)cc2nc1CSc1ccc(F)c(F)c1"
  Ratio: 4.9
- COMPOUND: "CCOC(=O)c1cc2c(Cn3ccnc3)c(O)c(OC)cc2nc1CSc1ccc(F)cc1"
  Ratio: 6
- COMPOUND: "CCOC(=O)c1cc2c(CN(C)C)c(O)c(OC)cc2nc1C[S+]([O-])c1ccc(F)cc1 (stereo not given)"
  Ratio: 2.5
- COMPOUND: "CCOC(=O)c1cc2c(CN3CCCC3)c(O)c(OC)cc2nc1CSc1ccc(F)cc1"
  Ratio: 5.6

Pending compound:
Supply recorded Ratio for CCOC(=O)c1cc2c(CN(C)C)c(O)c(OC)cc2nc1CSc1ccc(F)cc1 here.
6.9

###

# CC50 at 216 h annotations
- ASSAY_PROTOCOL: Cytotoxicity against human HepG2.2.15 cells after 9 days by MTT assay
- Format: cell-based, HepG2 2.2.15
- ASSAY_SETUP: read-out: TC50
Note: unit µM is implicit; provide only the numeric part.

Supply recorded CC50 at 216 h for CCOC(=O)c1cc2c(CN3CCCC3)c(O)c(OC)cc2nc1CSc1ccc(F)cc1 here.
47.3
